Biological target: UniProt:P36639
Test: MTH1 enzymatic assay (malachite green, coupled to pyrophosphatase)
Assay type: biochemical
Details: dGTP 100 μM, MTH1 6 nM; 96- or 384-well format; read-out: IC50
Procedure: MTH1 catalyzes the hydrolysis of dGTP to dGMP and PPi. By coupling the reaction to pyrophosphatase added in excess PPi is converted to Pi that can be detected by using the malachite green assay reagent. […] 96-well method: Briefly, the compound to be analyzed is diluted in DMSO in a 1:3 dilution series generating 12 different compound concentrations giving a final DMSO concentration of 1% in the assay well. […]
Endpoint name: IC50

Please review the entries below; each comes with its answer.
Input line: # query: IC50 of entry Nc1nc(NC2CC2)cc(-c2ccc3[nH]ccc3c2)n1 [Example 235]
Output line: < 200 nM

Input line: # query: IC50 of entry CCOCCCNc1cc(-c2cccc(Cl)c2C)nc(N)n1 [Example 705]
Output line: < 200 nM

Input line: # query: IC50 of entry Cc1c(Cl)cccc1-c1cc(NC/C(=C\F)CCc2ccc(F)cc2)nc(N)n1 [Example 721]
Output line: < 200 nM

Input line: # query: IC50 of entry Cc1ccc(S(=O)(=O)n2cc(-c3cc(NC4CCC4)nc(N)n3)c3ccccc32)cc1 [Example 152]
Output line: < 200 nM

Input line: # query: IC50 of entry CC(C)Nc1cc(-c2cccc(Cl)c2Cl)nc(N)n1 [Example 176]
Output line: < 200 nM

Input line: # query: IC50 of entry CNc1cc(-c2cc(OC)ccc2Cl)nc(N)n1 [Example 207]
Output line: < 200 nM

Input line: # query: IC50 of entry Cc1c(Cl)cccc1-c1cc(NCCCCc2ccccc2)nc(N)n1 [Example 680]
Output line: < 200 nM

Input line: # query: IC50 of entry CNc1cc(-c2cccc3c2ccn3S(=O)(=O)c2ccccc2)nc(N)n1 [Example 30]
Output line: < 200 nM

Continuing:
Input line: # query: IC50 of entry Cc1c(Cl)cccc1-c1cc(NCC(C)C)nc(N)n1 [Example 709]
Output line: < 200 nM

Input line: # query: IC50 of entry CNc1cc(-c2ccc(Cl)cc2Cl)nc(N)n1 [Example 71]
Output line: < 200 nM

====

Each entry below lists one item and its recorded IC50 value.
Biological target: MTH1 (Homo sapiens, UniProt P36639)
Test: MTH1 enzymatic assay (malachite green, coupled to pyrophosphatase)
Type: biochemical

Input line: # query: IC50 of entry CNc1cc(-c2cccc(Cl)c2Cl)nc(N)n1 [Example 38]
Output line: < 200 nM

We next turn to a different molecule, shown below.
Input line: # query: IC50 of entry [2H]C([2H])([2H])Nc1cc(-c2cccc(Cl)c2Cl)nc(N)n1 [Example 421]
Output line: < 200 nM

====

Biological target: MTH1 (Homo sapiens, UniProt P36639)
Experiment: MTH1 enzymatic assay (malachite green, coupled to pyrophosphatase)
Type: biochemical
Details: dGTP 100 μM, MTH1 6 nM; 96- or 384-well format; read-out: IC50
Protocol: MTH1 catalyzes the hydrolysis of dGTP to dGMP and PPi. By coupling the reaction to pyrophosphatase added in excess PPi is converted to Pi that can be detected by using the malachite green assay reagent. […] 96-well method: Briefly, the compound to be analyzed is diluted in DMSO in a 1:3 dilution series generating 12 different compound concentrations giving a final DMSO concentration of 1% in the assay well. […]
Each entry below lists one item and its recorded IC50 value.

Please review the entries below; each comes with its answer.
Input line: # query: IC50 of entry `CCCCNc1cc(-c2cccc(Cl)c2C)nc(N)n1`
Output line: < 200 nM

Input line: # query: IC50 of entry `CNc1cc(-c2cn(S(=O)(=O)c3ccccc3)c3ccccc23)nc(N)n1`
Output line: < 200 nM

Input line: # query: IC50 of entry `Cc1c(Cl)cccc1-c1cc(NCCc2ccc(Br)cc2)nc(N)n1`
Output line: < 200 nM

Continuing:
Input line: # query: IC50 of entry `Nc1nc(NCCc2ccc(Cl)cc2)cc(-c2ccccc2CO)n1`
Output line: < 200 nM

Input line: # query: IC50 of entry `CNc1cc(-c2cc(Cl)c(OC)cc2C)nc(N)n1`
Output line: < 200 nM
